- PROCEDURE DETAILS: DSSTox (CPDBAS) Carcinogenic Potency Database Summary SingleCellCall Results
- ASSAY SETUP: animal chronic carcinogenicity bioassays, CPDB summary call
Active and inactive are the calls of the source.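 How the source made its calls: active means a tumor-causing dose value with its tumor site reported for any sex and species group of a rodent or other animal cancer study; inconclusive means only studies judged inadequate by the national testing program; inactive means tested in at least one study, none positive.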
Classes used: YES for active, NO for inactive

| MOLECULE | CATEGORY |
| --- | --- |
| C1CCOC1 | YES |
| Cc1c(-c2cnccn2)ssc1=S | NO |
| CCOC(=O)CC(SP(=S)(OC)OC)C(=O)OCC (stereo unspecified) | NO |
| ClC(Cl)C(Cl)Cl | YES |
| CCCC[C@H](C)[C@@H](OC(=O)C[C@H](CC(=O)O)C(=O)O)[C@@H](C[C@H](C)C[C@@H](O)CCCC[C@@H](O)C[C@H](O)[C@H](C)N)OC(=O)C[C@H](CC(=O)O)C(=O)O | YES |
| O1[As]2O[As]3O[As]1O[As](O2)O3 | NO |
| O=Nc1ccc(Nc2ccccc2)cc1 | YES |
| CCCNN | YES |
| CC(=O)OC/C=C(C)/C=C/C=C(C)/C=C/C1=C(C)CCCC1(C)C | YES |
| O=NN1CCOC(O)C1 (stereo unspecified) | NO |
| CCOC(=O)/C=C\C(=O)OCC | NO |
| CN1C(C(=O)Nc2ccccn2)=C(O)c2ccccc2S1(=O)=O | NO |
| O=NN1CCC1 | YES |
| Cc1ccc(OP(=O)(Oc2ccc(C)cc2)Oc2ccc(C)cc2)cc1 | NO |
| C[C@]12C=CC(=O)C=C1CC[C@@H]1[C@@H]2C(=O)C[C@@]2(C)[C@H]1CC[C@]2(O)C(=O)CO | NO |
| CC(CN1CC(=O)NC(=O)C1)N1CC(=O)NC(=O)C1 (stereo unspecified) | YES |
| CCCCCCCCCCCCCCN(C)N=O | YES |
| [Cl-].[Hg+] | NO |
| O=[N+]([O-])c1cccc2cccnc12 | YES |
| ClC=C(Cl)Cl | YES |
| Nc1ccc2nc3ccccn3c2n1 | YES |
| OC[C@H]1O[C@H](O[C@]2(CCl)O[C@H](CCl)[C@@H](O)[C@@H]2O)[C@H](O)[C@@H](O)[C@H]1Cl | NO |
| CN(N=O)C(=O)c1ccccc1 | YES |
| CN(N=O)C(N)=O | YES |
| Cc1cnc(NC(=O)C2=C(O)c3ccccc3S(=O)(=O)N2C)s1 | NO |
| O=C1O[C@@H](CN2CCOCC2)CN1/N=C/c1ccc([N+](=O)[O-])o1 | YES |
| S=C([S-])NCCNC(=S)[S-].[Mn+2] | YES |
| C=CCc1ccc(OC)c(OC)c1 | YES |
| CBr | NO |
| Cc1ccccc1 | YES |
| c1ccc2n[nH]nc2c1 | NO |
| ClC(Cl)=C(Cl)C(Cl)=C(Cl)Cl | YES |
| CC(C)C(C(=O)OC(C#N)c1cccc(Oc2ccccc2)c1)c1ccc(Cl)cc1 (stereo unspecified) | NO |
| [N-]=[N+]=O | NO |
| CC(Cc1ccccc1)NN (stereo unspecified) | NO |
| OCN(CO)c1nc(N(CO)CO)nc(N(CO)CO)n1 | YES |
| COc1cc(-c2ccc(N=C=O)c(OC)c2)ccc1N=C=O | YES |
| CCC1(c2ccccc2)C(=O)N=C(O)NC1=O (stereo unspecified) | YES |
| CN(C)N=O | YES |
| CCCCNC(N)=O | NO |
| COc1nn(CSP(=S)(OC)OC)c(=O)s1 | YES |
| O=[N+]([O-])O | NO |
| CCc1cc(C(N)=S)ccn1 | YES |
| Nc1c(Cl)cc([N+](=O)[O-])cc1Cl | NO |
| CN(C)[C@@H]1C(=O)C(C(N)=O)=C(O)[C@@]2(O)C(=O)C3=C(O)c4c(O)cccc4[C@@](C)(O)[C@H]3[C@H](O)[C@@H]12 | NO |
| CCOP(=S)(OCC)Oc1ccc([N+](=O)[O-])cc1 | NO |
| OCCN(CCO)CCO | YES |
| CN(C)Nc1nc(-c2ccc([N+](=O)[O-])o2)cs1 | YES |
| CCCCCN(N=O)C(N)=O | YES |
| NC(=S)NNS(=O)(=O)c1ccccc1 | NO |
| Nc1nc(=S)c2ncn([C@H]3C[C@H](O)[C@@H](CO)O3)c2[nH]1 | YES |
| CN(CCCC(=O)O)N=O | YES |
| CCOc1ccc2c(c1)C(C)=CC(C)(C)N2 | NO |
| CC(C)CCCCCCOC(=O)c1ccccc1C(=O)OCCCCCCC(C)C | YES |
| CCC(Br)(CC)C(=O)NC(N)=O | NO |
| O=C1O[C@H]([C@H](O)CO)C(O)=C1O | NO |

###

- PROCEDURE DETAILS: DSSTox (CPDBAS) Carcinogenic Potency Database Summary SingleCellCall Results
- ASSAY SETUP: animal chronic carcinogenicity bioassays, CPDB summary call
The source made the active and inactive calls.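 Rule for the calls: active = a tumor-causing dose value with its tumor site reported for any sex and species group of a rodent or other animal cancer study; inconclusive = only studies judged inadequate by the national testing program; inactive = tested in at least one study, none positive.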
Labels: yes (1) (active), no (0) (inactive)

| COMPOUND | CATEGORY |
| --- | --- |
| CN=[N+](C)[O-] | yes (1) |
| CCN(CC)CCCNC(=O)Cn1ncc(-c2ccccc2)c1-c1ccccc1 | no (0) |
| O=[N+]([O-])c1cccc2ccccc12 | no (0) |
| Cc1ccc2ncccc2c1 | no (0) |
| CCCOC(=O)c1cc(O)c(O)c(O)c1 | no (0) |
| CCn1cc(C(=O)O)c(=O)c2cc3c(cc21)OCO3 | yes (1) |
| CNC(=O)O/N=C(\SC)C(=O)N(C)C | no (0) |
| CC(=O)C(N=Nc1ccc(-c2ccc(N=NC(C(C)=O)C(=O)Nc3ccccc3)c(Cl)c2)cc1Cl)C(=O)Nc1ccccc1 (stereo not drawn) | no (0) |
| C=CF | yes (1) |
| CO[C@@]12[C@H](COC(N)=O)C3=C(C(=O)C(C)=C(N)C3=O)N1C[C@@H]1N[C@@H]12 | yes (1) |
| O=S1(=O)CCCO1 | yes (1) |
| CN(C)CCOC(C)(c1ccccc1)c1ccccn1 (stereo not drawn) | yes (1) |
| c1ccc(Nc2ccc3ccccc3c2)cc1 | no (0) |
| Cn1cc(C(=O)[C@@H]2CCc3nc[nH]c3C2)c2ccccc21 | no (0) |
| FCCl | yes (1) |
| c1ccc(Nc2ccc(Nc3ccccc3)cc2)cc1 | no (0) |
| Cc1ccc(N=C=O)cc1N=C=O | yes (1) |
| C=Cc1cccc(C)c1 | no (0) |
| CCC1(CC)C(=O)N=C(O)NC1=O | yes (1) |
| CCN(CC)CCOc1ccc(C(O)(Cc2ccc(OC)cc2)c2ccccc2)cc1 (stereo not drawn) | no (0) |
| O=Nc1ccc(NO)cc1 | yes (1) |
| NS(=O)(=O)c1cc(C(=O)O)c(NCc2ccco2)cc1Cl | yes (1) |
| CN(N=O)c1ccccc1 | yes (1) |
| CCCNC(=O)NS(=O)(=O)c1ccc(Cl)cc1 | no (0) |
| Nc1ccc(N=Nc2ccc(N)cc2)cc1 | no (0) |
| O=C(O)COc1cc(Cl)c(Cl)cc1Cl | no (0) |
| CC1CN(/N=C/c2ccc([N+](=O)[O-])o2)C(=O)N1 (stereo not drawn) | yes (1) |
| Cc1ncc([N+](=O)[O-])n1C | yes (1) |

###

- PROCEDURE DETAILS: DSSTox (CPDBAS) Carcinogenic Potency Database Summary SingleCellCall Results
- ASSAY SETUP: animal chronic carcinogenicity bioassays, CPDB summary call
- Excerpt: The Carcinogenic Potency Database (CPDB) is a unique and widely used international resource of the results of over 6500 chronic, long-term animal cancer tests on over 1500 chemical substances. The CPDB provides easy access to the bioassay literature, with qualitative and quantitative analyses of both positive and negative experiments that have been published over the past 50 years in the general literature and by the National Cancer Institute/National Toxicology Program. […]
Activity calls are given as the source filed them.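 How the source made its calls: active means a tumor-causing dose value with its tumor site reported for any sex and species group of a rodent or other animal cancer study; inconclusive means only studies judged inadequate by the national testing program; inactive means tested in at least one study, none positive.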
Outcomes: True = active, False = inactive

| COMPOUND | CATEGORY |
| --- | --- |
| S=C1NCCN1 | True |
| CCNC(=O)Nc1ncc([N+](=O)[O-])s1 | True |
| O=NN(CCO)CCO | True |
| CC(C)(C)NCC(O)c1ccc(O)c(CO)c1 (stereo not given) | True |
| C=C1C(C)(C)[C@@]2(Cl)C(Cl)[C@]1(Cl)C(Cl)(Cl)C2(Cl)Cl (stereo not given in full) | True |
| Cc1cccc(Nc2cc(Cl)nc(SCC(=O)O)n2)c1C | True |
| O=C1OC(c2ccc(O)cc2)(c2ccc(O)cc2)c2ccccc21 | True |
| CCCCCC | True |
| N#[N+]c1cc(CCN)ccc1[O-] | True |
| O=C(O)c1cc(Oc2ccc(C(F)(F)F)cc2Cl)ccc1[N+](=O)[O-] | True |
| CNNCc1ccc(C(=O)NC(C)C)cc1 | True |
| NNC(=O)c1cccnc1 | True |
| Nc1ccc(O)c([N+](=O)[O-])c1 | True |
| CCN(CC)N=O | True |
| CC(C)Oc1ccc(Nc2ccccc2)cc1 | False |
| CNC(=S)NC | False |
| O=NN1CCC[C@H]1C(=O)O | False |
| O=C/C=C/c1ccccc1 | False |
| CO[C@H]1/C=C/O[C@@]2(C)Oc3c(C)c(O)c4c(O)c(c(/C=N/N5CCN(C)CC5)c(O)c4c3C2=O)NC(=O)/C(C)=C\C=C\[C@H](C)[C@H](O)[C@@H](C)[C@@H](O)[C@@H](C)[C@H](OC(C)=O)[C@@H]1C | True |
| Cn1cnc2nc(N)[nH]c(=O)c21 | False |
| O=S1OCCO1 | False |
| CCCCN(N=O)C(N)=O | True |
| CCN(C)N=O | True |
| CC(=O)Nc1ccc(-c2ccccc2)cc1 | True |
| [O]N=O | False |
| CC(O)CN(N=O)C(=O)NCCCl (stereo not given) | True |
| O=NN1CCNCC1 | True |
| FC(F)OC(F)(F)C(F)Cl (stereo not given) | False |
| Nc1cc(Cl)cc(C(=O)O)c1Cl | True |
| O=P(OCCCl)(OCCCl)OCCCl | True |
